These data points were gathered from patent US7402548B2.

Effects Barnyardgrass: recorded values
Tested on: barnyardgrjass
Experiment: Foliar spread test for upland field
Format: in vivo, Eschinochloa crusgalli
Set-up: key: 0 = normal development, 5 = all killed (6 ranks vs. untreated)
Settings: foliar spray, 500 ppm, 3 weeks, glass house 25° C.
Just the number, please, no unit after it.

Worked set:
Ask | Sample "CC(=Cc1cccc(C(F)(F)F)c1)c1nc2cc(Cl)ccc2o1" — what was its Effects Barnyardgrass?
Reply | 1

Ask | Can you look up the measured Effects Barnyardgrass of "CCCC(=Cc1cccc(C(F)(F)F)c1)c1nc2cc([N+](=O)[O-])ccc2o1" for me?
Reply | 2

Ask | Any idea what its Effects Barnyardgrass is? The compound is "CCCC(=Cc1cccc(C(F)(F)F)c1)c1nc2cc(F)ccc2o1"
Reply | 2

Ask | Fill blank: measured Effects Barnyardgrass of the compound "CCC(=Cc1cccc(C(F)(F)F)c1)c1nc2cc(Br)ccc2o1" is ____.
Reply | 3

Now take the following compound into account.
Ask | Tell me the measured Effects Barnyardgrass of "CCC(=Cc1cccc(C(F)(F)F)c1)c1nc2cc(C)ccc2o1" , please.
Reply | 2

###

Test system: soybean
Test: Foliar spread test for upland field
Type: in vivo
Parameters: key: 0 = normal development, 5 = all killed (6 ranks vs. untreated)
Settings: foliar spray, 500 ppm, 3 weeks, glass house 25° C.
measured metric: Effects Soybean
I'd appreciate a reply containing only the number, no unit.

Example cases with answers are listed next.
Ask | Param item = "CCC(=Cc1cccc(C(F)(F)F)c1)c1nc2cc(C#N)ccc2o1" ; retrieve measured Effects Soybean.
Reply | 5

Ask | Report Effects Soybean for "Fc1ccc2nc(-c3cccc(Oc4cccc(C(F)(F)F)c4)n3)oc2c1" please.
Reply | 5

Next:
Ask | Which Effects Soybean is reported for this compound? "CCC(=Cc1cccc(C(F)(F)F)c1)c1nc2cc(Br)ccc2o1"
Reply | 5

Ask | Look up Effects Soybean for this compound: "CC/C(=C\c1cccc(C(F)(F)F)c1)c1nc2cc(Cl)ccc2o1"
Reply | 5

Ask | Please look up its Effects Soybean: "CCCC(=Cc1cccc(C(F)(F)F)c1)c1nc2cc(C(F)(F)F)ccc2o1"
Reply | 5

###

# Effects Solgum per entry
Tested on: solgum
Assay: Soil treatment test for upland field
Format: in vivo
Design: key: 0 = normal development, 5 = all killed
Conditions: 500 g/ha, 3 weeks, glass house 25° C.
Method: The herbicidal effects are evaluated according to the following 6 ranks as compared with non-treated district. (0: normal development, 1: Less damaged, 2: Slightly damaged, 3: Moderately damaged, 4: Severely damaged, 5: All killed). Incidentally, “-” in the column means not investigated. […] The herbicidal effects were evaluated according to the evaluation method described in the above (1).
Number, no unit, nothing else.

Please review the following examples before continuing.
Ask | What value of measured Effects Solgum is listed for "FC(F)(F)c1cccc(C=Cc2nc3ccccc3o2)c1" ?
Reply | 1

Ask | Fill blank: measured Effects Solgum of the molecule "CCCC(=Cc1cccc(C(F)(F)F)c1)c1nc2cc(F)c(F)cc2o1" is ____.
Reply | 2

Ask | Using the record for "CCC(=Cc1cccc(C(F)(F)F)c1)c1nc2cc(C#N)c(F)cc2o1" , report its Effects Solgum.
Reply | 2

Ask | Can you look up the measured Effects Solgum of "FC(F)(F)c1cccc(Oc2cccc(-c3nc4cc(Cl)ccc4o3)n2)c1" for me?
Reply | 1

// moving on: another record for Effects Solgum
Ask | What Effects Solgum value was documented for this molecule, "CC(=Cc1cccc(C(F)(F)F)c1)c1nc2cc(Cl)ccc2o1" ?
Reply | 0

###

# Effects Barnyardgrass annotations
Test system: barnyardgrjass
Assay: Foliar spread test for upland field
Assay type: in vivo, Eschinochloa crusgalli
Set-up: key: 0 = normal development, 5 = all killed (6 ranks vs. untreated)
Conditions: foliar spray, 500 ppm, 3 weeks, glass house 25° C.
Provide a numeric answer; units are not to be included.

Some solved cases for reference:
Ask | Kindly state the measured Effects Barnyardgrass obtained for CCC(=Cc1cccc(C(F)(F)F)c1)c1nc2cc(F)ccc2o1 [I-c-42] with barnyardgrjass.
Reply | 2

Ask | Requested read-out Effects Barnyardgrass, target or system barnyardgrjass, entry CCCC(=Cc1cccc(C(F)(F)F)c1)c1nc2cc(C#N)ccc2o1 [I-c-83]
Reply | 2

Ask | Report Effects Barnyardgrass for CCC(=Cc1cccc(C(F)(F)F)c1)c1nc2cc([N+](=O)[O-])ccc2o1 [I-c-72] tested on barnyardgrjass.
Reply | 3

Continuing:
Ask | Record Fc1ccc2oc(-c3cccc(Oc4cccc(C(F)(F)F)c4)n3)nc2c1 [I-a-2] : what is its Effects Barnyardgrass with barnyardgrjass?
Reply | 3

Ask | Value wanted: Effects Barnyardgrass (barnyardgrjass) of entry COc1ccc2oc(-c3cccc(Oc4cccc(C(F)(F)F)c4)n3)nc2c1 [I-a-4]
Reply | 0

###

Test system: solgum
Assay: Soil treatment test for upland field
Assay type: in vivo
Design: key: 0 = normal development, 5 = all killed
Conditions: 500 g/ha, 3 weeks, glass house 25° C.
Protocol: The herbicidal effects are evaluated according to the following 6 ranks as compared with non-treated district. (0: normal development, 1: Less damaged, 2: Slightly damaged, 3: Moderately damaged, 4: Severely damaged, 5: All killed). Incidentally, “-” in the column means not investigated. […] The herbicidal effects were evaluated according to the evaluation method described in the above (1).
// reported Effects Solgum for each item listed
// no unit, no text: just the number

Ask | Which Effects Solgum value is on record for CCCC(=Cc1cccc(C(F)(F)F)c1)c1nc2cc(F)ccc2o1 [I-c-44] ?
Reply | 3

Ask | What measured Effects Solgum goes with CCC(=Cc1cccc(C(F)(F)F)c1)c1nc2cc([N+](=O)[O-])ccc2o1 [I-c-72] ?
Reply | 3

Ask | Which Effects Solgum is reported for this compound? CCC(=Cc1cccc(C(F)(F)F)c1)c1nc2cc(C#N)c(Cl)cc2o1 [I-c-143]
Reply | 3

Ask | What measured Effects Solgum goes with CCCC(=Cc1cccc(C(F)(F)F)c1)c1nc2cc(C(F)(F)F)ccc2o1 [I-c-88] ?
Reply | 4

Ask | Looking for the measured Effects Solgum of CCCC(=Cc1cccc(C(F)(F)F)c1)c1nc2cc(C#N)c(Cl)cc2o1 [I-c-145] , can you help?
Reply | 1

###

Test system: common lambsquarters
Assay: Foliar spread test for upland field
Type: in vivo, Chenopodium album
Design: key: 0 = normal development, 5 = all killed (6 ranks vs. untreated)
Details: foliar spray, 500 ppm, 3 weeks, glass house 25° C.
Each item that follows carries a reported Effects Common lambsquarters.
Give the figure only, with no unit attached.

Ask | What does the data say about its Effects Common lambsquarters? Entry: "CC(=Cc1cccc(C(F)(F)F)c1)c1nc2cc(F)ccc2o1"
Reply | 4

###

Tested on: corn
Experiment: Soil treatment test for upland field
Format: in vivo
Parameters: key: 0 = normal development, 5 = all killed
Settings: 500 g/ha, 3 weeks, glass house 25° C.
measured metric: Effects Corn

The examples below pair each entry with its known result.
Ask | Bench note: what Effects Corn did "CCC(=Cc1cccc(C(F)(F)F)c1)c1nc2cc([N+](=O)[O-])ccc2o1" show?
Reply | 2

Ask | Would you mind telling me what Effects Corn value was observed for CCC(Oc1cc(C(F)(F)F)nn1C)c1nc2cc(C#N)c(Cl)cc2o1 (stereo not drawn) ?
Reply | 0

Ask | GET /values?readout=Effects Corn&item= "CCCC(=Cc1cccc(C(F)(F)F)c1)c1nc2cc(C#N)c(F)cc2o1"
Reply | 2

Ask | Form field: reported Effects Corn of "Fc1ccc2nc(-c3cccc(Oc4ccc(F)c(C(F)(F)F)c4)n3)oc2c1"
Reply | 0

Ask | Give the measured Effects Corn of "CCC(=Cc1cccc(C(F)(F)F)c1)c1nc2cc(C#N)c(F)cc2o1" .
Reply | 2

Ask | Could you tell me which Effects Corn is on file for CCC(F)(Cc1ccc(F)c(C(F)(F)F)c1)c1nc2cc(Cl)ccc2o1 (stereo not drawn) ?
Reply | 0

Ask | Need Effects Corn, item "CCC(=Cc1cccc(C(F)(F)F)c1)c1nc2ccc([N+](=O)[O-])cc2o1"
Reply | 1

Ask | Sample CCCC(Oc1cc(C)nc(C#N)n1)c1nc2cc(C#N)ccc2o1 (stereo not drawn) — what was its Effects Corn?
Reply | 0

Let us move to another entry and its Effects Corn.
Ask | Report Effects Corn for "FC(F)(F)c1cccc(Oc2cccc(-c3nc4ccccc4o3)n2)c1" please.
Reply | 0

###

System: morning glory
Test: Foliar spread test for upland field
Type: in vivo, Ipomoea spps.
Set-up: key: 0 = normal development, 5 = all killed (6 ranks vs. untreated)
Conditions: foliar spray, 500 ppm, 3 weeks, glass house 25° C.
Overview of reported Effects Morning glory across a group of compounds:
Please reply with the number alone, leaving off any unit.

Ask | Give the measured Effects Morning glory of FC(F)(F)c1cccc(Oc2cccc(-c3nc4cc(Cl)ccc4o3)n2)c1 [I-a-3] .
Reply | 5

Ask | Look at this compound and give its reported Effects Morning glory. CCCC(=Cc1cccc(C(F)(F)F)c1)c1nc2cc(C#N)ccc2o1 [I-c-83]
Reply | 5

Ask | // lookup Effects Morning glory for CCC(=Cc1cccc(C(F)(F)F)c1)c1nc2cc(C)ccc2o1 [I-c-76]
Reply | 5

---
Ask | Using the record for FC(F)(F)c1cccc(C=Cc2nc3ccccc3o2)c1 [I-c-1] , report its Effects Morning glory.
Reply | 5

Ask | What does the record list as Effects Morning glory for CCC(=Cc1cccc(C(F)(F)F)c1)c1nc2cc(F)ccc2o1 [I-c-42] ?
Reply | 4

Ask | Report Effects Morning glory for CCCC(=Cc1cccc(C(F)(F)F)c1)c1nc2cc(C#N)c(Cl)cc2o1 [I-c-145] please.
Reply | 5

Ask | Entry CC(=Cc1cccc(C(F)(F)F)c1)c1nc2cc(C#N)c(F)cc2o1 [I-c-135] has what Effects Morning glory?
Reply | 5

Ask | Which Effects Morning glory value belongs to CCC(F)(Cc1ccc(F)c(C(F)(F)F)c1)c1nc2cc(Cl)ccc2o1 (stereo not drawn) [I-d-13] ?
Reply | 5

Ask | Item under review: CCC(=Cc1cccc(C(F)(F)F)c1)c1nc2cc(C(F)(F)F)ccc2o1 [I-c-86] . Reported Effects Morning glory?
Reply | 5
